details: in methyl acetate, 313.15 K
Measure: solubility (mole fraction)

   structure_notation  observed_value
0      NC(=O)c1cccnc1          0.0209

###

settings: in isopropanol, 283.15 K
Measure: solubility (mole fraction)

In [3]: df
Out[3]:
   structure_notation  observed_value
0      NC(=O)c1cccnc1          0.0187

###

settings: in n-butanol, 308.15 K
Measure: solubility (mole fraction)

>>> print(df.to_string())
   structure_notation  observed_value
0      NC(=O)c1cccnc1          0.0482

###

settings: in n-butyl acetate, 298.15 K
Measure: solubility (mole fraction)

   structure_notation                     measure  observed_value
0      NC(=O)c1cccnc1  solubility (mole fraction)          0.0107
